target: human STING WT (R232); assay: Human STING HTRF binding assay (competitive, Cisbio 64BDSTGPEG); details: 6His tagged human STING WT R232, competition with STING ligand-d2
RECORDED_METRIC: pIC50
The value called pIC50 is obtained by taking minus log10 of the concentration in mol/L.

In the examples that follow, each entry is paired with its recorded pIC50.
COMPOUND	TESTED_TARGET	RECORDED_METRIC	MEAS_VALUE
CCP(=O)(CC)c1ccc(-c2nc(-c3cccc4nn(-c5cc(C(F)(F)F)n(C)n5)cc34)c(C3CC3)n2C)c(OC(F)(F)F)c1 [Example 17]	human STING WT (R232)	pIC50	7.32
COCc1cc(C(N)=O)ccc1-c1nc(-c2cccc3nn(-c4cn(C5CC5)nc4OC)cc23)c(C2CC2)n1C [Example 12]	human STING WT (R232)	pIC50	8.02
COc1nn(C2CC2)cc1-n1cc2c(-c3nc(-c4ccc(C(=O)N(C)C)cc4OC(F)(F)F)n(C)c3C3CC3)cccc2n1 [Example 15]	human STING WT (R232)	pIC50	7.48

Ask: What reported pIC50 corresponds to CC[P@@](C)(=O)c1ccc(-c2nc(-c3cccc4nn(-c5cn(C6CC6)nc5OC)cc34)c(C3CC3)n2C)c(OC(F)(F)F)c1 [Example 13] on human STING WT (R232)?
Reply: 7.72

Ask: What reported pIC50 corresponds to CC[P@](C)(=O)c1ccc(-c2nc(-c3cccc4nn(-c5cc(C(F)F)n(C)n5)cc34)c(C3CC3)n2C)c(OC(F)(F)F)c1 [Example 7] on human STING WT (R232)?
Reply: 7.71

Ask: What reported pIC50 corresponds to CC[P@](C)(=O)c1ccc(-c2nc(-c3cccc4[nH]c(-c5cc(C(F)(F)F)n(C)n5)nc34)c(C3CC3)n2C)c(OC(F)(F)F)c1 [Example 18] on human STING WT (R232)?
Reply: 7.58
